Source: paper PMC11475281

Test: GLUT-2 uptake experiment (phloretin blockade, MTS)
Format: cell-based
Conditions: African green monkey, VERO cells; 12.5 μM; No addition of Ph; read-out: VERO Cell Viability %
PARAMETER_MEASURED: viability at 72 h, 12.5 µM (%)
Numbers only; they are read as %.

Measured viability at 72 h, 12.5 µM, O=C(CCCCCCC(=O)Nc1ccccc1)NO [SAHA, vorinostat, reference compound] : 17.1

---

Target: UniProtKB Q13547
Sequence (Q13547 whole entry, canonical isoform): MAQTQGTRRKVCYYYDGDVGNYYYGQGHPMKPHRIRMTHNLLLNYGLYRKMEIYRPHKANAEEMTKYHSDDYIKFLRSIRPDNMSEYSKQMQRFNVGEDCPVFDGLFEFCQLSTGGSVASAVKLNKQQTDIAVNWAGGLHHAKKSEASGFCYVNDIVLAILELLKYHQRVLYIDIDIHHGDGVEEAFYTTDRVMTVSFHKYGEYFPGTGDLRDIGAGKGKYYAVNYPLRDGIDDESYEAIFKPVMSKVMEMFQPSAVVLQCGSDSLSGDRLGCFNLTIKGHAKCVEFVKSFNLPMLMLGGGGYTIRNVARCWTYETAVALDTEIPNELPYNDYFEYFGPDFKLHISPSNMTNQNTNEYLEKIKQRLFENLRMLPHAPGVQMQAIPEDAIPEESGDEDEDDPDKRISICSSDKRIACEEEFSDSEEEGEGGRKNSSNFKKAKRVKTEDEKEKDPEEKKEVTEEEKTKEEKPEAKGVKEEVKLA
Assay: HDAC isoform inhibition (BPS Bioscience)
Settings: read-out: HDAC1 IC50; Table S1
PARAMETER_MEASURED: IC50
Respond with a number, then the unit of measure.

Check out these entries, answers already filled in.
MOLECULE	ASSAY_SYSTEM	REPORTED
O=C(CCCCCCn1cc(-c2ccc(O[C@@H]3O[C@H](CO)[C@@H](O)[C@H](O)[C@H]3O)cc2)nn1)NO [STR-I-195]	UniProtKB Q13547	14.6 nM
O=C(CCCCCCn1cc(-c2ccc3cc(O[C@@H]4O[C@H](CO)[C@@H](O)[C@H](O)[C@H]4O)ccc3c2)nn1)NO [STR-II-36]	UniProtKB Q13547	3.28 nM
CC(=O)OCC1OC(Oc2ccc(-c3cn(CCCCCCC(=O)NO)nn3)cc2)C(OC(C)=O)C(OC(C)=O)C1OC(C)=O (stereo not shown) [STR-V-176]	UniProtKB Q13547	1.43 nM
O=C(CCCCCCn1cc(-c2ccc3cc(O[C@H]4O[C@H](CO)[C@@H](O)[C@H](O)[C@H]4O)ccc3c2)nn1)NO [STR-V-114]	UniProtKB Q13547	20.3 nM
CC(=O)O[C@H]1[C@H](Oc2ccc(-c3cn(CCCCCCC(=O)NO)nn3)cc2)O[C@H](C)C[C@@H]1N(C)C [STR-V-165]	UniProtKB Q13547	10.3 nM
CC(=O)OCC1OC(Oc2ccc(-c3cn(CCCCCCC(=O)NO)nn3)cc2)C(OC(C)=O)C(OC(C)=O)C1OC(C)=O (stereo not shown) [STR-V-167]	UniProtKB Q13547	31.8 nM

Now consider a different molecule.
Kindly note: UniProtKB Q13547, CC(=O)OCC1OC(Oc2ccc3cc(-c4cn(CCCCCCC(=O)NO)nn4)ccc3c2)C(OC(C)=O)C(OC(C)=O)C1OC(C)=O (stereo not shown) [STR-V-177] , IC50 value reported: 2.2 nM
